List of Kd values.
experimental_target: T1, Rb^P K462T (human, UniProt P06400 380-788, K462T)
T1 construct: also called variant 9
T1 sequence (looked up): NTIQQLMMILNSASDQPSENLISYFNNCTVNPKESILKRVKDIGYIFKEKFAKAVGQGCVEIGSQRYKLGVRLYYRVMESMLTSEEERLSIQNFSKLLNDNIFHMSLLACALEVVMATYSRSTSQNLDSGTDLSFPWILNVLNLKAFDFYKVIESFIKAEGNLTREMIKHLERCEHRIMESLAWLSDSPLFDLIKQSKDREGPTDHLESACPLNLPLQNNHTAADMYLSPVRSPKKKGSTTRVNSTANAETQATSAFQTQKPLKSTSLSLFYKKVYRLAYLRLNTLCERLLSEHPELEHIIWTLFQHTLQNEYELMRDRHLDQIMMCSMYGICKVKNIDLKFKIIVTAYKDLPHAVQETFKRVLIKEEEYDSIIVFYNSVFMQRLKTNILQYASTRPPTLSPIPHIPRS
procedure_text: fluorescence polarisation; 25 °C; unlabeled Rb^P titrated against 1.5 nM TMR-E2F1^TD or 7.5 nM TMR-E7^LxCxE; 25 mM Tris pH 8.0, 200 mM NaCl, 1 mM DTT, 0.1% Tween-20; 2 min incubation; quadratic fit; apparent Kd for the variants, Kd for WT
condition_context: both partners purified
No end group written: not given here. TMR = tetramethyl rhodamine dye
Numeric answer only, unit nM assumed.

binder | Kd (nM)
{TMR}-GEGIRDLFDCDFGDLTPLD (also called E2F^TD; source: synthetic peptide, bought: GenScript) [TMR-E2F1^TD, peptide of the E2F1 transactivation domain] | 30

Attention now turns to another entry.
Q) Quick one: Kd for DLYCYEQLN (also: TMR label, position not given here, source: synthetic peptide, bought: GenScript) [TMR-E7^LxCxE, LxCxE peptide of the E7 oncoprotein from HPV] ?
A) 8
